Overview of recorded Fold ratio (FR) si:rp71-39b20.7 for various compounds
- System: si:rp71-39b20.7
- method.description: Microarray gene expression in zebrafish embryos exposed to compound, si:rp71-39b20.7
- reported.conditions: 24 hpf; embryos exposed at BMCGMS20 (PAA equimolar to MAA and EAA); relative to DMSO-exposed control; negative = downregulation, positive = upregulation
experimental.readout: Fold ratio (FR) si:rp71-39b20.7

[
  {
    "compound": "CC(C1CC1)C(O)(Cn1cncn1)c1ccc(Cl)cc1 (stereo not shown)",
    "experimental.readout": "Fold ratio (FR) si:rp71-39b20.7",
    "obs.value": -1.544
  },
  {
    "compound": "C[Si](Cn1cncn1)(c1ccc(F)cc1)c1ccc(F)cc1",
    "experimental.readout": "Fold ratio (FR) si:rp71-39b20.7",
    "obs.value": -1.514
  },
  {
    "compound": "CCOCC(=O)O",
    "experimental.readout": "Fold ratio (FR) si:rp71-39b20.7",
    "obs.value": -2.183
  },
  {
    "compound": "O=C(O)COc1ccccc1",
    "experimental.readout": "Fold ratio (FR) si:rp71-39b20.7",
    "obs.value": -1.098
  }
]
